Target: Thromboxane A2 receptor (Homo sapiens, UniProt P21731)
Sequence (P21731 whole entry): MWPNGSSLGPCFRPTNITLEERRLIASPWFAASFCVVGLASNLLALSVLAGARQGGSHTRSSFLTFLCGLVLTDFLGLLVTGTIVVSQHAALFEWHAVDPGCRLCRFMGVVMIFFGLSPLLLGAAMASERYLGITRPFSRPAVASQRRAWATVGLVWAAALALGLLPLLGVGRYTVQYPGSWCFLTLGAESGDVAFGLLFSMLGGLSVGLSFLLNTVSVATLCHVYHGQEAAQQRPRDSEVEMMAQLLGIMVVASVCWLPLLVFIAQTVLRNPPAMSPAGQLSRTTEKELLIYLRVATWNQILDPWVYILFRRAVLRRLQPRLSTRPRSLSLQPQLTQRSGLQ
Assay: Binding affinity towards Thromboxane A2/ Prostaglandin H2 receptor in human platelet membranes using [125I]- as the radioligand.
Type: cell membranes
ASSAY METRIC: pIC50
Keep in mind that pIC50 stands for -log10 of concentration in molar terms.

Field request: pIC50 | item: O=C(O)C[C@@H]1CCCc2c1n(Cc1ccc(Cl)cc1)c1ccc(F)cc21 (stereo in doubt; L-657925)
7.95

Field request: pIC50 | item: O=C(O)C[C@@H]1CCCc2c1n(Cc1ccc(Cl)cc1)c1ccc(F)cc21 (stereo in doubt; L-657926)
5.82

----------
biological target: Thromboxane A2 receptor (Homo sapiens, UniProt P21731); test: Binding affinity towards Thromboxane A2 receptor/Prostaglandin receptor in human platelet membranes using [125I]- as the radioligand; assay type: cell membranes
ASSAY METRIC: pIC50
Keep in mind that pIC50 stands for -log10 of concentration in molar terms.

Field request: pIC50 | item: "O=C(O)CCC/C=C\C[C@@H]1[C@@H](/C=C/[C@@H](O)COc2ccc(I)cc2)[C@H]2CC[C@@H]1O2"
7.30
